- testSummary: Viability qHTS for spleen associated tyrosine kinase inhibitor (SYKi) naive MV4-11 cells (AID 1963823); further: nearly all actives have a fitted effect of over 40% in size
- assayConditions: MV4-11 AML viability, CellTiter-Glo luminescence, 72 h; series mostly up to 45 µM
Inconclusive results are not listed. Calls of active or inactive are those of the source. The call rests on the fitted dose curve; in most records, active means well fitted cell-killing curve with a large enough effect; inconclusive means small, poorly fitted or top-dose-only effect, or effect the other way; inactive means no such curve, though single readings can be large or run the other way.
Hi there, use one of these labels in your reply, thanks! y (active), n (inactive)

Example entries begin here.
[
  {
    "molecule": "COc1ccc(OC)c(C(O)CNC(=O)CN)c1 (stereo not drawn)",
    "groupLabel": "n"
  },
  {
    "molecule": "COc1cc2ncnc(Oc3cccc(NC(=O)Nc4cc(C(C)(C)C(F)(F)F)on4)c3)c2cc1OC",
    "groupLabel": "y"
  },
  {
    "molecule": "CC[C@@H]1[C@H](F)C(=O)N[C@@H]1COc1nccc2cc(C(N)=O)c(OC)cc12",
    "groupLabel": "y"
  },
  {
    "molecule": "C=C[C@H]1C(O[C@@H]2O[C@H](CO)[C@@H](O)[C@H](O)[C@H]2O)OC=C2C(=O)N3CCc4c([nH]c5ccccc45)C3CC21 (stereo partly drawn)",
    "groupLabel": "n"
  },
  {
    "molecule": "CCOC(=O)[C@H](CCc1ccccc1)CC1(C(=O)N[C@H]2CCc3ccccc3N(CC(=O)O)C2=O)CCCC1",
    "groupLabel": "y"
  }
]

Request: Each molecule tested received a call. Report the one for "CCCc1c(C(C)C)nc(C(C)C)c([C@@H](C)O)c1-c1ccc(F)cc1O" .
Result: y

Request: Param item: "CC(C)NC[C@@H](O)COc1ccc(CC(N)=O)cc1"
Result: n

Request: Param item: OC[C@@]1(O)CO[C@H](OC[C@H]2O[C@@H](OC(CCCCc3ccc(O)cc3)CCc3ccc(O)cc3)[C@H](O[C@H]3OC[C@](O)(CO)[C@H]3O)[C@@H](O)[C@@H]2O)[C@@H]1O (stereo partly drawn)
Result: n

From: PubChem BioAssay (NCATS)
